Below: a set of entries, each annotated with reported inhibition.
Test system: Glycine max
assay name: Inhibition of soybean lipoxygenase at 10 uM after 15 mins
measurement kind: inhibition (%)

{"columns": ["mol", "measurement kind", "endpoint value"],
 "data": [
  ["Cl.O=C(CNC(=O)c1nccc(O)c1O)NCc1ccccc1", "inhibition", 8.3],
  ["CNC(=O)[C@H](C)NC(=O)c1nccc(O)c1O.Cl", "inhibition", 2.7],
  ["Cl.O=C(N[C@@H](Cc1ccccc1)C(=O)NCc1ccccc1)c1nccc(O)c1O", "inhibition", 30.2],
  ["C[C@H](NC(=O)c1nccc(O)c1O)C(=O)NCc1ccccc1.Cl", "inhibition", 3.3],
  ["CNC(=O)[C@H](Cc1ccccc1)NC(=O)c1nccc(O)c1O.Cl", "inhibition", 27.6],
  ["CC(C)CNC(=O)CNC(=O)c1nccc(O)c1O.Cl", "inhibition", 9.3]
]}
